Test system: 422866-222-R5-J1-PDC complex spheroids viability
experiment summary: Anticancer human tumor 422866-222-R5-J1-PDC patient-derived pancreatic adenocarcinoma cell line growth inhibition [RAS]; active means viability on the fitted dose curve at most 10% of control; inactive means the rest
measurement parameters: second compound 0.01 µM; first compound 3.16 µM
Classes used: active, inactive

compound	target system	group
CCC(CC)c1cc(NC2CCC(N)C2)n2nccc2n1 (centres undefined) + C=CC(=O)N1CCN(c2nc(OCC3CCCN3C)nc3c(F)c(-c4nc(N)cc(C)c4C(F)(F)F)c(Cl)cc23)C(C)C1	422866-222-R5-J1-PDC complex spheroids viability	inactive
Cc1nc(N2CCC3(CC2)COC(C)C3N)c(CO)nc1Sc1ccnc(N)c1Cl (centres undefined) + C=CC(=O)N1CCN(c2nc(OCC3CCCN3C)nc3c(F)c(-c4nc(N)cc(C)c4C(F)(F)F)c(Cl)cc23)C(C)C1	422866-222-R5-J1-PDC complex spheroids viability	inactive
C[C@@H](NC(=O)c1ncnc(N)c1Cl)c1ncc(C(=O)Nc2cc(C(F)(F)F)c(Cl)cn2)s1 + C=CC(=O)N1CCN(c2nc(OCC3CCCN3C)nc3c(F)c(-c4nc(N)cc(C)c4C(F)(F)F)c(Cl)cc23)C(C)C1	422866-222-R5-J1-PDC complex spheroids viability	inactive
CC(Nc1ccc2c(c1)OCCn1cc(N3C(=O)OCC3C(F)F)nc1-2)C(N)=O (centres undefined) + C=CC(=O)N1CCN(c2nc(OCC3CCCN3C)nc3c(F)c(-c4nc(N)cc(C)c4C(F)(F)F)c(Cl)cc23)C(C)C1	422866-222-R5-J1-PDC complex spheroids viability	active

---

Tested on: 422866-222-R5-J1-PDC complex spheroids viability
experiment summary: Anticancer human tumor 422866-222-R5-J1-PDC cell line growth inhibition [RAS];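 further: spheroids exposed to compounds for 7 days; 100% = DMSO vehicle control viability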
measurement parameters: second compound 1 µM; first compound 0.316 µM; active compounds read low
observation type: viability, T/C

molecule	observation type	result
CC(=O)OC12COC1CC(O)C1(C)C(=O)C(O)C3=C(C)C(OC(=O)C(O)C(NC(=O)OC(C)(C)C)c4ccccc4)CC(O)(C(OC(=O)c4ccccc4)C21)C3(C)C (stereo not given) + C=CC(=O)N1CCN(c2nc(OCC3CCCN3C)nc3c(F)c(-c4nc(N)cc(C)c4C(F)(F)F)c(Cl)cc23)C(C)C1	viability, T/C	22.7%
CCN1CCN(Cc2ccc(Nc3ncc(F)c(-c4cc(F)c5nc(C)n(C(C)C)c5c4)n3)nc2)CC1 + C#Cc1c(F)ccc2cc(O)cc(-c3ncc4c(N5CC6CCC(C5)N6)nc(OCC56CCCN5CC(F)C6)nc4c3F)c12	viability, T/C	35.4%
O=C(c1ccc(F)c(F)c1Nc1ccc(I)cc1F)N1CC(O)([C@@H]2CCCCN2)C1 + C=CC(=O)N1CCN(c2nc(OCC3CCCN3C)nc3c(F)c(-c4nc(N)cc(C)c4C(F)(F)F)c(Cl)cc23)C(C)C1	viability, T/C	14.8%
Cc1nc(N2CCC3(CC2)COC(C)C3N)c(CO)nc1Sc1ccnc(N)c1Cl (stereo not given) + C#Cc1c(F)ccc2cc(O)cc(-c3ncc4c(N5CC6CCC(C5)N6)nc(OCC56CCCN5CC(F)C6)nc4c3F)c12	viability, T/C	24.3%
Nc1ccn(C2OC(CO)C(O)C2(F)F)c(=O)n1 (stereo not given) + C#Cc1c(F)ccc2cc(O)cc(-c3ncc4c(N5CC6CCC(C5)N6)nc(OCC56CCCN5CC(F)C6)nc4c3F)c12	viability, T/C	33.3%
NC1c2ccccc2OC12CCN(c1cnc3c(N4CCCc5ncccc54)n[nH]c3n1)CC2 (stereo not given) + C=CC(=O)N1CCN(c2nc(OCC3CCCN3C)nc3c(F)c(-c4nc(N)cc(C)c4C(F)(F)F)c(Cl)cc23)C(C)C1	viability, T/C	16.4%
Nc1ccn(C2OC(CO)C(O)C2(F)F)c(=O)n1 (stereo not given) + C=CC(=O)N1CCN(c2nc(OCC3CCCN3C)nc3c(F)c(-c4nc(N)cc(C)c4C(F)(F)F)c(Cl)cc23)C(C)C1	viability, T/C	18%
C[C@@H](NC(=O)c1ncnc(N)c1Cl)c1ncc(C(=O)Nc2cc(C(F)(F)F)c(Cl)cn2)s1 + C#Cc1c(F)ccc2cc(O)cc(-c3ncc4c(N5CC6CCC(C5)N6)nc(OCC56CCCN5CC(F)C6)nc4c3F)c12	viability, T/C	45.4%
C[C@@H](NC(=O)c1ncnc(N)c1Cl)c1ncc(C(=O)Nc2cc(C(F)(F)F)c(Cl)cn2)s1 + C=CC(=O)N1CCN(c2nc(OCC3CCCN3C)nc3c(F)c(-c4nc(N)cc(C)c4C(F)(F)F)c(Cl)cc23)C(C)C1	viability, T/C	27.2%
CCN1CCN(Cc2ccc(Nc3ncc(F)c(-c4cc(F)c5nc(C)n(C(C)C)c5c4)n3)nc2)CC1 + C=CC(=O)N1CCN(c2nc(OCC3CCCN3C)nc3c(F)c(-c4nc(N)cc(C)c4C(F)(F)F)c(Cl)cc23)C(C)C1	viability, T/C	24.9%

---

// viability, T/C lookup, one value per entry
System: 422866-222-R5-J1-PDC complex spheroids viability
experiment summary: Anticancer human tumor 422866-222-R5-J1-PDC cell line growth inhibition [RAS];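 further: spheroids exposed to compounds for 7 days; 100% = DMSO vehicle control viability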
measurement parameters: second compound 0.03 µM; first compound 10 µM; active compounds read low
observation type: viability, T/C (%)

molecule	target system	observation type	measured number
CC(=O)OC12COC1CC(O)C1(C)C(=O)C(O)C3=C(C)C(OC(=O)C(O)C(NC(=O)OC(C)(C)C)c4ccccc4)CC(O)(C(OC(=O)c4ccccc4)C21)C3(C)C (centres undefined) + CCn1c(-c2cc(N3CCN(C)CC3)cnc2C(C)OC)c2c3cc(ccc31)-c1csc(n1)CC(NC(=O)C1CC1C)C(=O)N1CCCC(N1)C(=O)OCC(C)(C)C2	422866-222-R5-J1-PDC complex spheroids viability	viability, T/C	19.4
C[C@@H](NC(=O)c1ncnc(N)c1Cl)c1ncc(C(=O)Nc2cc(C(F)(F)F)c(Cl)cn2)s1 + CCn1c(-c2cccnc2C(C)OC)c2c3cc(ccc31)N1CCOC(CC(NC(=O)C(C(C)C)N(C)C(=O)C3(F)CCN(C(=O)C#CC(C)(C)N(C)C)CC3)C(=O)N3CCCC(N3)C(=O)OCC(C)(C)C2)C1	422866-222-R5-J1-PDC complex spheroids viability	viability, T/C	21
CC1(O)CCCC1n1c(=O)c(C(F)F)cc2cnc(NC3CCN(S(C)(=O)=O)CC3)nc21 (centres undefined) + CCn1c(-c2cccnc2C(C)OC)c2c3cc(ccc31)N1CCOC(CC(NC(=O)C(C(C)C)N(C)C(=O)C3(F)CCN(C(=O)C#CC(C)(C)N(C)C)CC3)C(=O)N3CCCC(N3)C(=O)OCC(C)(C)C2)C1	422866-222-R5-J1-PDC complex spheroids viability	viability, T/C	45.4
CCC(CC)c1cc(NC2CCC(N)C2)n2nccc2n1 (centres undefined) + CCn1c(-c2cccnc2C(C)OC)c2c3cc(ccc31)N1CCOC(CC(NC(=O)C(C(C)C)N(C)C(=O)C3(F)CCN(C(=O)C#CC(C)(C)N(C)C)CC3)C(=O)N3CCCC(N3)C(=O)OCC(C)(C)C2)C1	422866-222-R5-J1-PDC complex spheroids viability	viability, T/C	42

---

Test system: 422866-222-R5-J1-PDC complex spheroids viability
experiment summary: Anticancer human tumor 422866-222-R5-J1-PDC cell line growth inhibition [RAS];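 further: spheroids exposed to compounds for 7 days; 100% = DMSO vehicle control viability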
measurement parameters: second compound 0.03 µM; first compound 0.316 µM; active compounds read low
// viability, T/C lookup, one value per entry

molecule	viability, T/C, %
O=C(c1ccc(F)c(F)c1Nc1ccc(I)cc1F)N1CC(O)([C@@H]2CCCCN2)C1 + CCn1c(-c2cccnc2C(C)OC)c2c3cc(ccc31)N1CCOC(CC(NC(=O)C(C(C)C)N(C)C(=O)C3(F)CCN(C(=O)C#CC(C)(C)N(C)C)CC3)C(=O)N3CCCC(N3)C(=O)OCC(C)(C)C2)C1	11.7
C=CC(=O)N1CCN(c2nc(OCC3CCCN3C)nc3c(F)c(-c4nc(N)cc(C)c4C(F)(F)F)c(Cl)cc23)C(C)C1 (centres undefined) + CCn1c(-c2cccnc2C(C)OC)c2c3cc(ccc31)N1CCOC(CC(NC(=O)C(C(C)C)N(C)C(=O)C3(F)CCN(C(=O)C#CC(C)(C)N(C)C)CC3)C(=O)N3CCCC(N3)C(=O)OCC(C)(C)C2)C1	21.1
CC1(O)CCCC1n1c(=O)c(C(F)F)cc2cnc(NC3CCN(S(C)(=O)=O)CC3)nc21 (centres undefined) + CCn1c(-c2cc(N3CCN(C)CC3)cnc2C(C)OC)c2c3cc(ccc31)-c1csc(n1)CC(NC(=O)C1CC1C)C(=O)N1CCCC(N1)C(=O)OCC(C)(C)C2	22.8
C=CC(=O)N1CCN(c2nc(OCC3CCCN3C)nc3c(F)c(-c4nc(N)cc(C)c4C(F)(F)F)c(Cl)cc23)C(C)C1 (centres undefined) + CCn1c(-c2cc(N3CCN(C)CC3)cnc2C(C)OC)c2c3cc(ccc31)-c1csc(n1)CC(NC(=O)C1CC1C)C(=O)N1CCCC(N1)C(=O)OCC(C)(C)C2	18.2
